# experiment: Stability of compounds in human liver microsomes
# Type: in vitro ADME
# appliedConditions: both sexes, liver microsomes, pH 7.4; calculated from HLM half-life, human; read-out: HLM Scaled Intrinsic Clearance
Recorded measurements of CLint scaled at 0.5 μM, one per entry
Report the value in L/h/kg with no unit label.

[[record]]
compound = "COc1cc2c(cc1OCC1(C#N)CCC1)CCN1C[C@@H](CC(C)(C)C)[C@H](O)C[C@H]21 [Compound 4-42]"
readoutunits = "L/h/kg"
reportedvalue = 1.46

[[record]]
compound = "COc1cc2c(cc1OCC(O)COCC(F)(F)F)CCN1C[C@@H](CC(C)(C)C)[C@H](O)C[C@H]21 (stereo partly shown) [Compound 4-79]"
readoutunits = "L/h/kg"
reportedvalue = 0.353


Then there is this compound:
Which CLint scaled at 0.5 μM value belongs to COc1cc2c(cc1OCc1cocn1)CCN1C[C@@H](CC(C)(C)C)[C@H](O)C[C@H]21 [Compound 4-75] ?
0.716

* * *

# experiment: Stability of compounds in human liver microsomes
# Assay type: in vitro ADME
# appliedConditions: both sexes, liver microsomes, pH 7.4; calculated from HLM half-life, human; read-out: HLM Scaled Intrinsic Clearance
Recorded measurements of CLint scaled at 0.5 μM, one per entry
Report the value in mL/min/kg with no unit label.

Consider the worked cases shown below.
[[record]]
smilesrecord = "COc1cc2c(cc1OCc1ccon1)CCN1C[C@@H](CC(C)(C)C)[C@H](O)C[C@H]21"
measuredparameter = "CLint scaled at 0.5 μM"
readoutunits = "mL/min/kg"
reportedvalue = 15.5

[[record]]
smilesrecord = "COc1cc2c(cc1O[C@@H]1CCOC1)CCN1C[C@@H](CC(C)(C)C)[C@H](O)C[C@H]21"
measuredparameter = "CLint scaled at 0.5 μM"
readoutunits = "mL/min/kg"
reportedvalue = 8.57

[[record]]
smilesrecord = "COc1cc2c(cc1OCC1(F)CCC1)CCN1C[C@@H](CC(C)(C)C)[C@H](O)C[C@H]21"
measuredparameter = "CLint scaled at 0.5 μM"
readoutunits = "mL/min/kg"
reportedvalue = 42

[[record]]
smilesrecord = "COc1cc2c(cc1OCc1cccc(C#N)c1)CCN1C[C@@H](CC(C)(C)C)[C@H](O)C[C@H]21"
measuredparameter = "CLint scaled at 0.5 μM"
readoutunits = "mL/min/kg"
reportedvalue = 21.8


Then there is this molecule:
Which CLint scaled at 0.5 μM value belongs to COc1cc2c(cc1OCC1(F)COC1)CCN1C[C@@H](CC(C)(C)C)[C@H](O)C[C@H]21 ?
14.2

* * *

# system: human VMAT2 (Homo sapiens (Human), UniProt Q05940)
# Sequence (Q05940 whole entry): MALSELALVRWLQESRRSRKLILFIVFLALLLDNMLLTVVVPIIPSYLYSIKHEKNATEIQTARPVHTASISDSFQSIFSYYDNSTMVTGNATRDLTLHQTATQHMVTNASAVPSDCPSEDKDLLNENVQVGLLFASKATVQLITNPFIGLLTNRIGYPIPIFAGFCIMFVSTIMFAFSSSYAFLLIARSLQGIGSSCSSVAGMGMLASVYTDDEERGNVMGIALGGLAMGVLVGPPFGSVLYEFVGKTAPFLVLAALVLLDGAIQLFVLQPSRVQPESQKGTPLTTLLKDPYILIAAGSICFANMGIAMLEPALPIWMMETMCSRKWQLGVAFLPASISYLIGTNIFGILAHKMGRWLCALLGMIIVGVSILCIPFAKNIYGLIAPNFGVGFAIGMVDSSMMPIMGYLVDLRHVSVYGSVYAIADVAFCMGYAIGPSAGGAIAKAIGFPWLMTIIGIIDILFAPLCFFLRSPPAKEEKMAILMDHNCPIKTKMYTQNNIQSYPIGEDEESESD
# experiment: VMAT2 radioligand binding, 3H-dihydrotetrabenazine competition on human platelet homogenate
# appliedConditions: 10 nM 3H-dihydrotetrabenazine, human platelet homogenate, 25° C., 90 minutes; read-out: VMAT2 Ki
Recorded measurements of log10 of Ki, one per entry
Recall that a logarithmic scale is used here: each number is log10 of Ki in nM.

[[record]]
compound = "COc1cc2c(cc1OCCCF)CCN1C[C@@H](CC(C)(C)C)[C@H](O)C[C@H]21 [Compound 4-28]"
reportedvalue = -0.32


Which log10 of Ki value belongs to COc1cc2c(cc1OCC(F)F)CCN1C[C@@H](CC(C)(C)C)[C@@H](O)C[C@H]21 [Compound 4-10] ?
1.18

Which log10 of Ki value belongs to COc1cc2c(cc1OCS(=O)(=O)N(C)C)CCN1C[C@@H](CC(C)(C)C)[C@H](O)C[C@H]21 [Compound 4-86] ?
2.46

Which log10 of Ki value belongs to COc1cc2c(cc1OCc1cccc(C#N)n1)CCN1C[C@@H](CC(C)(C)C)[C@H](O)C[C@H]21 [Compound 4-77] ?
1.93

Which log10 of Ki value belongs to COc1cc2c(cc1OCc1ccccc1)CCN1C[C@@H](CC(C)(C)C)[C@H](O)C[C@H]21 [Compound 4-60] ?
0.49

Which log10 of Ki value belongs to COc1cc2c(cc1OCC1(O)CCC1)CCN1C[C@@H](CC(C)(C)C)[C@H](O)C[C@H]21 [Compound 4-25] ?
0.74

Which log10 of Ki value belongs to COc1cc2c(cc1OCc1cocn1)CCN1C[C@@H](CC(C)(C)C)[C@H](O)C[C@H]21 [Compound 4-75] ?
1.88

Which log10 of Ki value belongs to COC[C@H](O)COc1cc2c(cc1OC)[C@H]1C[C@@H](O)[C@H](CC(C)(C)C)CN1CC2 [Compound 4-48] ?
2.50

Which log10 of Ki value belongs to COc1cc2c(cc1OCC(O)CC(F)(F)F)CCN1C[C@@H](CC(C)(C)C)[C@H](O)C[C@H]21 (stereo partly shown) [Compound 4-62] ?
0.57

Which log10 of Ki value belongs to COc1cc2c(cc1OCc1cccc(C#N)c1)CCN1C[C@@H](CC(C)(C)C)[C@H](O)C[C@H]21 [Compound 4-116] ?
1.75

Which log10 of Ki value belongs to COc1cc2c(cc1OCCC1(C#N)CC1)CCN1C[C@@H](CC(C)(C)C)[C@H](O)C[C@H]21 [Compound 4-45] ?
0.86

Which log10 of Ki value belongs to COc1cc2c(cc1OCC(O)COCC(F)(F)F)CCN1C[C@@H](CC(C)(C)C)[C@H](O)C[C@H]21 (stereo partly shown) [Compound 4-79] ?
2.00

Which log10 of Ki value belongs to COc1cc2c(cc1OCc1ccc(F)cc1)CCN1C[C@@H](CC(C)(C)C)[C@H](O)C[C@H]21 [Compound 4-63] ?
0.62

Which log10 of Ki value belongs to COc1cc2c(cc1OCC1(OS(C)(=O)=O)CC1)CCN1C[C@@H](CC(C)(C)C)[C@H](O)C[C@H]21 [Compound 4-94] ?
2.59

Which log10 of Ki value belongs to COc1cc2c(cc1OC1CC1)CCN1C[C@@H](CC(C)(C)C)[C@H](O)C[C@H]21 [Compound 4-27] ?
0.00

Which log10 of Ki value belongs to COc1cc2c(cc1OCC#N)CCN1C[C@@H](CC(C)(C)C)[C@H](O)C[C@H]21 [Compound 4-24] ?
1.54

Which log10 of Ki value belongs to COc1cc2c(cc1OCCCC(F)(F)F)CCN1C[C@@H](CC(C)(C)C)[C@H](O)C[C@H]21 [Compound 4-120] ?
0.18
